These entries and their values trace back to patent US20230303711A1.

target: T1, His-tagged human CD47-ECD protein (CD47-His) (human, UniProt Q08722 19-139); test: competitive ELISA on coated CD47-His (2 µg/mL); blocked ligand SIRPα-Fc-Bio (0.1 µg/mL), HRP-streptavidin, OD450; value is parameter C of the printed 4-parameter fit
T1 construct: Expressed in HEK293F cells; also called CD47-His antigen
T1 sequence (Q08722 other isoform, or with tags, fused parts or gaps): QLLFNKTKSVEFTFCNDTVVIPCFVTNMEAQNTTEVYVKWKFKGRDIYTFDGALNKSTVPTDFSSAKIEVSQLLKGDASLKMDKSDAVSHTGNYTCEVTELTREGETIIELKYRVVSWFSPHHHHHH
observable: IC50 (µg/mL)
Give the number; µg/mL is assumed, so skip it.

Some binders with known IC50 results, for comparison:
Antibody 24 (antibody, human IgG1, kappa, V domains shown, Full-length IgG1) VH: QVQLQESGPGLVKPSETLSLTCTVSGGSLDNYYWSWIRQPPGKGLEWIGRIYGDSATNYNPSLKSRVTISVDTSKNQFSLRLRSVTAADTAVYYCARGGRIFSGYWGQGTLVTVSS VL: DIQMTQSPSSVSASVGDRVTISCRANQAIGTWLAWYQQKPGKAPKLLIYAASTLQSGVPSRFSGSGSGTEFTLTISSLQAEDVAVYYCQQYYTTPLTFGGGTKLEIKR : 1.41
Antibody 25 (antibody, human IgG1, kappa, V domains shown, Full-length IgG1) VH: QVQLQESGPGLVKPSETLSLTCTVSGGSLDNYYWSWIRQPPGKGLEWIGYIYYSGNTNYNPSLKSRVTISVDTSKNQFSLRLRSVTAADTAVYYCARGGRIFGHWGQGTLVTVSS VL: DIQMTQSPSSVSASVGDRVTISCRANQAIGTWLAWYQQKPGKAPKLLIYAASTLQSGVPSRFSGSGSGTEFTLTISSLQAEDVAVYYCQQYYTTPLTFGGGTKLEIKR : 1.31
Antibody 18 (antibody, human IgG1, kappa, V domains shown, Full-length IgG1) VH: QVQLQESGPGLVKPSETLSLTCTVSGGSLDNYYWSWIRQPPGKGLEWIGYIYYSGNTNYNPSLKSRVTISVDTSKNQFSLRLRSVTAADTAVYYCARGRGIFGYWGQGTLVTVSS VL: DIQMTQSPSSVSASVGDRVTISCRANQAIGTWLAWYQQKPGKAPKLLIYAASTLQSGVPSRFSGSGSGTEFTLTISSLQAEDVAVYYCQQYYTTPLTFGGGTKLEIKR : 1.23

Then this binder:
Query: Item Antibody 16 (antibody, human IgG1, kappa, V domains shown, Full-length IgG1) VH: QVQLQESGPGLVKPSETLSLTCTVSGGSLDNYYWSWIRQPPGKGLEWIGYIYYSGNTNYNPSLKSRVTISVDTSKNQFSLRLRSVTAADTAVYYCARGGRIFSGYWGQGTLVTVSS VL: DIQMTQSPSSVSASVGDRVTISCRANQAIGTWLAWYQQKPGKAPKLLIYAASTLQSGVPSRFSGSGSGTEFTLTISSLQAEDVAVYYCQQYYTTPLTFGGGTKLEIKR has what recorded IC50?
Response: 0.975
